Reference for the values: PubChem BioAssay (NCATS)

Experiment: AP1 Signaling Pathway (AID 357);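 further: ME-180 reporter cells stimulated with EGF at its EC50 level; on the % scale 0 is the no-effect control and ±100 the full control effect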
Conditions: ME-180 (cervical carcinoma) AP-1-bla reporter, EGF-induced, beta-lactamase ratio, 5 h; at 17.2 µM (top of the series)
Results filed as inconclusive are left out.
Attribute: activity change, negative = inhibition
API: value field is a number in %; no unit string.

Take a look at these entries with their results.
[[record]]
compound = "COc1ccc2c(c1OC)C(=O)OC2[C@H]1c2c(cc3c(c2OC)OCO3)CCN1C (some centres undefined)"
result_value = -2.27

[[record]]
compound = "COc1ccc([C@@H]2CNC(=O)C2)cc1OC1CCCC1"
result_value = -7.88

[[record]]
compound = "CN(C)CC[C@H](c1ccc(Cl)cc1)c1ccccn1"
result_value = 15.5


Let's switch to this compound now.
activity change, negative = inhibition in this record for Nc1nc2c(c(=O)[nH]1)N(C=O)[C@H](CNc1ccc(C(=O)N[C@@H](CCC(=O)O)C(=O)O)cc1)CN2 : -9.84

###

Test: qHTS Screen of the MIPE 4.0 Collection Against Ewings Sarcoma (TC32) (AID 1259256); further: nearly all actives have a fitted effect of over 45% in size; further: potency means the concentration at half of the fitted maximal effect
Conditions: TC32 Ewing sarcoma viability, CellTiter-Glo, 48 h; series mostly up to 45.8 µM
Results filed as inconclusive are left out. Activity calls are given as the source filed them. Calls follow the shape of the dose curve; as a rule, active = well fitted inhibition curve with a large enough effect; inconclusive = small, poorly fitted or top-dose-only effect; inactive = no such curve, though single readings can be large or run the other way.
OBSERVED PROPERTY: Potency

Take a look at these entries with their results.
[[record]]
compound = "CC(=O)O[C@]1(C(C)=O)CC[C@H]2[C@@H]3C=C(C)C4=CC(=O)CC[C@]4(C)[C@@H]3CC[C@@]21C"
observed_property = "Potency"
result_value = "5.26 µM (active)"

[[record]]
compound = "CCC[C@H]1C[C@H](C(=O)N[C@@H]([C@@H]2O[C@@H](SC)[C@@H](O)[C@@H](O)[C@@H]2O)[C@H](C)Cl)N(C)C1"
observed_property = "Potency"
result_value = "inactive"

[[record]]
compound = "CC(=O)NC(CS)C(=O)O (stereo unspecified)"
observed_property = "Potency"
result_value = "inactive"

[[record]]
compound = "COc1cc(O)c2c(c1)C1OC1C[C@H](O)[C@H](O)C(=O)C=CC[C@H](C)OC2=O (stereo partly specified)"
observed_property = "Potency"
result_value = "7.43 µM (active)"


Potency in this record for CCOC(=O)N1CCN([N+]([O-])=NOc2ccc([N+](=O)[O-])cc2[N+](=O)[O-])CC1 : 3.72 µM (active)

Potency in this record for C=CC(=O)Nc1ccc2ncnc(Nc3ccc(OCc4cccc(F)c4)c(Cl)c3)c2c1 : 0.833 µM (active)

###

Assay: Quantitative High-Throughput drug screen in 47 multiple myeloma cell lines against the NCATS MIPE library collection: KMS12BM_JCRB cell viability assay (AID 1918971); further: nearly all actives have a fitted effect of over 35% in size
Conditions: KMS12BM myeloma viability, CellTiter-Glo ATP, 48 h; series mostly up to 45.8 µM
Results filed as inconclusive are left out. The source made the active and inactive calls. Calls follow the shape of the dose curve; as a rule, active = well fitted cell-killing curve with a large enough effect; inconclusive = small, poorly fitted or top-dose-only effect, or effect the other way; inactive = no such curve, though single readings can be large or run the other way.
Log the outcome using a class from active, inactive

[[record]]
molecule = "NC(=O)c1cccc(-c2cccc(OC(=O)NC3CCCCC3)c2)c1"
group = "inactive"

[[record]]
molecule = "CC(C)(N)c1ccc(-c2nc3ccccc3nc2-c2ccccc2)cc1"
group = "active"

[[record]]
molecule = "CCNC(=O)Nc1ccc(-c2nc3c(c(N4CCOC[C@H]4C)n2)CCN(C2COC2)C3)cc1"
group = "active"

[[record]]
molecule = "CN(C)CC(=O)N1CCC(c2ccc(NC(=O)c3ncc(C#N)[nH]3)c(C3=CCCCC3)c2)CC1"
group = "inactive"

[[record]]
molecule = "CCOC(=O)[C@@H](N)Cc1ccc(-c2cc(O[C@H](c3ccc(Cl)cc3-n3ccc(C)n3)C(F)(F)F)nc(N)n2)cc1"
group = "active"

[[record]]
molecule = "CC(=O)N[C@H]1[C@@H]([C@H](O)[C@H](O)CO)OC(C(=O)O)=C[C@@H]1N=C(N)N"
group = "inactive"

[[record]]
molecule = "Nc1ccn(C[C@@H](CO)OCP(=O)(O)O)c(=O)n1"
group = "inactive"

[[record]]
molecule = "O=c1[nH]c(=O)n([C@H]2C[C@@H](O)[C@@H](CO)O2)cc1F"
group = "active"

[[record]]
molecule = "CCCCCN=C(N)NN=Cc1c[nH]c2ccc(OC)cc12"
group = "active"

[[record]]
molecule = "NC(=O)Nc1cc(-c2ccc(CN3CCOCC3)cc2)sc1C(N)=O"
group = "active"


Ask | Can you look up the reported call for CC(=O)OC[C@@H]1O[C@@H](n2ccc(=O)[nH]c2=O)[C@H](OC(C)=O)[C@H]1OC(C)=O for me?
Reply | inactive

Ask | Can you look up the reported call for C=CCNC1=C2C[C@@H](C)C[C@H](OC)[C@@H](O)[C@@H](C)C=C(C)[C@H](OC(N)=O)[C@@H](OC)C=CC=C(C)C(=O)NC(=CC1=O)C2=O for me?
Reply | active

Ask | Can you look up the reported call for Cc1cncc2cccc(S(=O)(=O)N3CCCN(C(=O)CN)C[C@@H]3C)c12 for me?
Reply | inactive

Ask | Can you look up the reported call for O=C(O)C(=O)Nc1cccc(C2=NN=N[N]2)c1 for me?
Reply | inactive

Ask | Can you look up the reported call for N#Cc1c(C2CCNCC2)cc(-c2c(O)cccc2OCC2CC2)nc1N for me?
Reply | active

Ask | Can you look up the reported call for O=C1NC(=O)C(=Cc2ccc3nccc(-c4ccncc4)c3c2)S1 for me?
Reply | active

Ask | Can you look up the reported call for CCS(=O)(=O)Nc1ccc2[nH]c(O)c(C(=Nc3ccc(CN4CCCCC4)cc3)c3ccccc3)c2c1 for me?
Reply | active

Ask | Can you look up the reported call for C[C@H](NC(=O)Cc1cc(F)cc(F)c1)C(=O)N[C@H](C(=O)OC(C)(C)C)c1ccccc1 for me?
Reply | active
